Listed below: pIC50 values for each entry.
target: pY641-STAT6 in PBMC (Homo sapiens, UniProt P42226); construct: Cryopreserved Peripheral Blood Mononuclear Cells (PBMC) are from AllCells; host or cells: cryopreserved PBMC; experiment: MSD-pSTAT-PBMC Assay (pSTAT6, IL-4 stimulated); type: cell-based; conditions: STAT6, PBMC, compound 3 hrs, then 1 ng/mL IL-4 for 10 min; Table 115
Sequence (P42226 whole entry): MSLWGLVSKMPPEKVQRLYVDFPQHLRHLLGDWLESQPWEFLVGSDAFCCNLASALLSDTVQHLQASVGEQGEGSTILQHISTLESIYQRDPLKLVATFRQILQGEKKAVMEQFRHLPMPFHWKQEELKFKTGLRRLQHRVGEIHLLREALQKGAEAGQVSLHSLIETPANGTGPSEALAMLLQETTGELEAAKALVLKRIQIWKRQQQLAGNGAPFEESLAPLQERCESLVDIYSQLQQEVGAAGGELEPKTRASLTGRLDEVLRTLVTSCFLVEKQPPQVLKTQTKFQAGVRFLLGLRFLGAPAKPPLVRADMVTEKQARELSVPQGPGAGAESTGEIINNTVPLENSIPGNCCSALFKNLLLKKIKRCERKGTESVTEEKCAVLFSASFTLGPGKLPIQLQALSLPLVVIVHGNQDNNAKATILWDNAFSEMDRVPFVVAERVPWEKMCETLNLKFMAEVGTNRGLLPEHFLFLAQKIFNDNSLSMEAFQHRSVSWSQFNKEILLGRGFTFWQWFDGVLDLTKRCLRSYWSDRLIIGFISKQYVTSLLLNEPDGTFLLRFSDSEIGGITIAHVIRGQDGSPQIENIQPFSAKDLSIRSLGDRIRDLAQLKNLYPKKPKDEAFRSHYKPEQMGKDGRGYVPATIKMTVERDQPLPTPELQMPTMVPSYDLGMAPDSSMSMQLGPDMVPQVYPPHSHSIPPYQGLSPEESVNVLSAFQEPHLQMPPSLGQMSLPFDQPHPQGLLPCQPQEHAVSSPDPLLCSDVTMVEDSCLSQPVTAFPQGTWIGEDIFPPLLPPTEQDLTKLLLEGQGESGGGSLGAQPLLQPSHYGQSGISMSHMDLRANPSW
pIC50: −log10 of the molar value.

compound: CCCOC(=O)[C@H](C)NP(=O)(Cc1ccc2ccc(C(=O)N[C@H]3CCCC[C@H]4CC[C@@H](C(=O)N5CCC(c6cccnc6)C5)N4C3=O)cc2c1)Oc1ccccc1 (some centres unmarked)
pIC50: 6.00 to 7.00

compound: COCCOC(=O)[C@H](C)NP(=O)(Oc1ccccc1)[C@@H](F)c1ccc2sc(C(=O)N[C@H]3CCC[C@H]4CC[C@@H](C(=O)N5C[C@@H](c6cccnc6)CC56CC6)N4C3=O)cc2c1 (some centres unmarked)
pIC50: > 7.00

compound: CCCOC(=O)[C@H](C)NP(=O)(Oc1ccccc1)C(F)c1ccc2ccc(C(=O)N[C@H]3CCCC[C@H]4CC[C@@H](C(=O)N5CCC(F)(c6ccn(C)c(=O)c6)C5)N4C3=O)cc2c1 (some centres unmarked)
pIC50: 6.00 to 7.00

compound: CCCOC(=O)[C@H](C)NP(=O)(Oc1ccccc1)[C@H](F)c1ccc2sc(C(=O)N[C@H]3CCCC[C@H]4CC[C@@H](C(=O)N5C[C@H](c6ccccc6)[C@@H](C#N)C56CC6)N4C3=O)cc2c1 (some centres unmarked)
pIC50: > 7.00

compound: CCCOC(=O)[C@H](C)NP(=O)(Oc1ccccc1)C(F)c1ccc2sc(C(=O)N[C@H]3CCCC[C@H]4CC[C@@H](C(=O)N5C(=O)N(c6cc(=O)n(C)cc6F)C(=O)C56CC6)N4C3=O)cc2c1 (some centres unmarked)
pIC50: < 5.52
